# experiment: qHTS for Inhibitors of Inflammasome Signaling: IL-1-beta AlphaLISA Primary Screen; further: on the % scale 0 is the no-effect control and ±100 the full control effect
# measurement-parameters: THP-1 LPS/ATP IL-1B secretion, 16 h; at 57.5 µM, stronger effect = lower value
The campaign covered roughly 360,000 compounds. About 17,000 (4.7%) were called active. Inconclusive results (about 5%) are left out. This excerpt belongs to a sample that is enriched for actives.
quantity-measured: activity change (%)
Numbers only, in %.

> print(dat)
                                   compound  quantity.measured  meas.value
1  CCc1nc2c(OCc3ccccc3)cccn2c1N(C)C(=O)c1ccco1    activity change       -17.3
2  COc1ccccc1-n1cnc2cc(NS(=O)(=O)c3ccccc3)ccc21    activity change       -2.81
3  CNC[C@H]1OCc2cnnn2CCCC(=O)N([C@H](C)CO)C[C@@H]1C    activity change        -6.3
4  CC(C)=CCc1c(O)c(CC=C(C)C)c2occ(-c3ccc(O)cc3)c(=O)c2c1O    activity change       -78.8
5  O=C1OC(OC(=O)c2ccccc2Br)C(N2CCOCC2)=C1Cl (stereo not given)    activity change       -12.8

Provide activity change values for the following items, in order.
1. CCOC1=C2CN(S(=O)(=O)c3ccc(C)cc3)[C@H](c3cccs3)C[C@H]2[C@H]2C(=O)N(c3ccccc3)C(=O)[C@H]2C1
2. Cc1ccccc1C(=O)OC1OC(=O)C(Cl)=C1Nc1ccccc1 (stereo not given)

91.6
-17.8

Parameters: items (list). Returns: activity change for each item.
1. C[C@H](NC(=O)[C@@H]1CCCN1C(=O)[C@@H]1CCCN1C(=O)c1ccccc1)c1ccccc1
2. Cc1ccc(S(=O)(=O)c2c[nH]c3ccc(Cl)cc3c2=O)cc1
3. Cc1ccccc1-c1nc(NC(C)C)nc2cc(-c3ccccc3)sc12

1. 9.38
2. -2.27
3. 19.3

----------
# experiment: qHTS for Inhibitors of Inflammasome Signaling: IL-1-beta AlphaLISA Primary Screen
# measurement-parameters: THP-1 LPS/ATP IL-1B secretion, 16 h; at 57.5 µM
# Excerpt: Inflammasomes are a set of intracellular multi-protein complexes that enable autocatalytic activation of inflammatory caspases and drive the innate immune response to counter harmful agents. […] A qHTS assay, based on AlphaLISA technology, was developed to screen the Molecular Libraries Small Molecule Repository (MLSMR) to look for novel inflammasome inhibitors. The assay detects IL-1B using AlphaLISA anti-IL-1B acceptor and donor beads. […]
The whole screen tested about 360,000 compounds, of which about 17,000 (4.7%) were called active. Not shown: some 5% with an inconclusive outcome. Rule as the data show it: active = activity change below about -50%; inconclusive = mostly about -30% to -49%; inactive = weaker than that. The sample as a whole holds a higher share of actives than the screen did.
Your response should consist of one outcome taken from 1.0 for active, 0.0 for inactive

Example entries and their recorded answers appear below.
> print(dat)
                                   compound  label.class
1  CCc1nc2ccc(C(=O)N3CCN(S(=O)(=O)CC)CC3)cn2c1N(C=O)CCC(C)C          0.0
2        CCOC(=O)C(=Cc1ccccc1)C(=O)c1ccccc1          1.0
3  N=C1C(c2nc3ccccc3[nH]2)=C(O)CN1NC(=O)c1c[nH]c2ccccc12          0.0
4  O=C(NCC(F)(F)F)c1ccc(S(=O)(=O)NCCc2ccc3c(c2)OCCO3)cc1          0.0
5  CCCCN1CC(COc2ccccc2)Oc2cccc(F)c2S1(=O)=O (configuration not stated)          0.0

Per the assay record, what outcome was assigned to Cc1cccc(CN2CCC(CNC(=O)Nc3ccc(F)c(Cl)c3)CC2)c1 ?
1.0

Per the records of this test, what outcome belongs to CCOC(=O)C(=CNc1cccc(C)n1)C(=O)OCC ?
0.0

What outcome does the record of this test show for Cc1ccc(C)n1NC(=O)c1ccc([N+](=O)[O-])cc1 ?
0.0

Dear all, I need the recorded test outcome for CCOC(=O)c1ccccc1OC(=O)Oc1ccccc1C(=O)OCC , thank you.
0.0

# fetch the recorded call for O=C(CN1CCC(O)(c2ccccc2)CC1)Nc1ccc2c(c1)OCCO2 here
0.0

Per the records of this test, what outcome belongs to O=C(CCN1CCc2ccccc2C(O)(c2ccccc2)C1)c1ccc2c(c1)OCCO2 (configuration not stated) ?
1.0

Please indicate how the test categorized CC(=O)Nc1cccc(Nc2ccc(C#N)cc2)c1 .
0.0

Given COc1ccc(NC(=O)C(C)N2c3cccc4cccc(c34)S2(=O)=O)c(OC)c1 (configuration not stated) , state the outcome it received in this test.
0.0

The origin of these recorded values is PubChem BioAssay AID743279.
